CONDITION_LABEL: rat, microsomes
Provide the reported Rat_SD/Microsomes t1/2 of each item.
Give bare numbers, in m.

Reference set, count: 3
CCC(C)C(NC(=O)C1OC1C(=O)NC(CC(C)C)C(=O)NCCC(C)C)C(=O)N1CCCC1C(=O)OCc1ccccc1 (stereo not drawn) : 1.5
CCOC(=O)[C@H]1O[C@@H]1C(=O)N[C@@H](CC(C)C)C(=O)NCCC(C)C [E64d] : 1.5
CCCNC(=O)[C@H]1O[C@@H]1C(=O)N[C@H](C(=O)N1CCC[C@H]1C(=O)OC)[C@@H](C)CC [CA074me, CA074 methyl ester] : 11.1

Input CC(C)CCNC(=O)[C@H](CC(C)C)NC(=O)[C@H]1O[C@@H]1C(=O)NCc1cccnc1 . Output Rat_SD/Microsomes t1/2: 6.4

###

Test system: VEEV-Trinidad
PROTOCOL_DETAILS: microbe, parasite or virus in culture
Format: cell-based
CONDITION_LABEL: Venezuelan equine encephalitis virus, A549, read-out: VEEV-Trinidad EC50
ASSAY_ENDPOINT: EC50 (µM)
Answers are plain numbers, in µM.

CC(C)CCNC(=O)[C@H](CC(C)C)NC(=O)[C@H]1O[C@@H]1C(=O)NCc1ccncc1 : 9.45
CC(C)CCNC(=O)[C@H](CC(C)C)NC(=O)[C@H]1O[C@@H]1C(=O)NCc1ccc(C#N)cc1 : 4.29

Hi! Can you tell me EC50 for each of these molecules?
1. CC(C)CCNC(=O)[C@H](CC(C)C)NC(=O)[C@H]1O[C@@H]1C(=O)NCc1cccc(C#N)c1
2. CC(C)CCNC(=O)[C@H](CC(C)C)NC(=O)[C@H]1O[C@@H]1C(=O)NCCCCO
3. CCC(C)C(NC(=O)C1OC1C(=O)NC(CC(C)C)C(=O)NCCC(C)C)C(=O)N1CCCC1C(=O)OCc1ccccc1 (stereo not drawn)
4. CC(C)CCNC(=O)[C@H](CC(C)C)NC(=O)[C@H]1O[C@@H]1C(=O)NCc1cccnc1

Reply text:
1. 1.76
2. 26.4
3. 7.9
4. 5.97

###

PROTOCOL_DETAILS: in vitro
CONDITION_LABEL: SD, rat, microsomes
ASSAY_ENDPOINT: half-life (min)
One number for each entry, in min.

Reference set, count: 2
CCC(C)C(NC(=O)C1OC1C(=O)NC(CC(C)C)C(=O)NCCC(C)C)C(=O)N1CCCC1C(=O)OCc1ccccc1 (centres unmarked) [NCGC00484087-01] : 1.5
CC(C)CCNC(=O)[C@H](CC(C)C)NC(=O)[C@H]1O[C@@H]1C(=O)NCc1cccnc1 [NCGC00488907-01] : 6.4

Input CCCNC(=O)[C@H]1O[C@@H]1C(=O)N[C@H](C(=O)N1CCC[C@H]1C(=O)OC)[C@@H](C)CC [CA074me, CA074 methyl ester] . Output half-life: 11.1

###

Provide the reported EC50 of each item.
Test system: VEEV-Trd
PROTOCOL_DETAILS: microbe, parasite or virus in culture
Assay type: cell-based, Venezuelan equine encephalitis virus
CONDITION_LABEL: Venezuelan equine encephalitis virus

Reference set, count: 2
CC(=O)NC1C(=O)N(CCN2CCOCC2)c2ccc(Br)cc21 (stereo not drawn) : > 50 µM
CCc1ccc2c(c1)C(NC(C)=O)C(=O)N2CCN1CCOCC1 (stereo not drawn) : > 50 µM

Consider the additional molecule presented here.
Input O=C(/C=C/c1cccs1)Nc1scc(-c2ccccc2)c1C(=O)O . Output EC50: > 50 µM
